targetEntity: T1, Cynomolgus CXCR2 (cynomolgus, UniProt Q28519 3-353 (rhesus entry))
T1 construct: On transfected HEK293T or RBL-2H3 cells; native on cynomolgus neutrophils in the WBSC assay; also called cCXCR2; cynoCXCR2
T1 chain: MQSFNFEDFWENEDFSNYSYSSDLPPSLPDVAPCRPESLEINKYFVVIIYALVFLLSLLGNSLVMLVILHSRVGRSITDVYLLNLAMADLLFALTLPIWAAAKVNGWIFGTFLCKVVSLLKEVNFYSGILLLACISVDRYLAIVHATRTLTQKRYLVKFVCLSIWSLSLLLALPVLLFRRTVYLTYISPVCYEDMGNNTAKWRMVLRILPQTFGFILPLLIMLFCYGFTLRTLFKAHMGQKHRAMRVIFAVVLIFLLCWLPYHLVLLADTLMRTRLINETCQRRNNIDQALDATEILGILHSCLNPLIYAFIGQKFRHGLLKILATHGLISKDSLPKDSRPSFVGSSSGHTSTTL
assayProcedure: FACS competition vs 3 nM FMAT-Blue Gro-α
# pIC50 per entry
pIC50 here is simply -log10 of the concentration when that concentration is written in mol/L.

Known pIC50 results, listed for orientation:
binder	pIC50
CXCR20017 (other, Two different VHH joined by a GlySer linker; also called 97A9-35GS-137B7; not shown: C-terminal c-myc tag and His6 tag coded by pAX100) EVQLVESGGGLVQPGGSLRLSCVASGSIVRINTMGWYRQTPGKQRELVADITSGGNINYIDAVKGRFTISRDNTKNTVYLQMNSLKPEDTAVYYCNAEIVVLVGVWTQRARTGNYWGQGTQVTVSSGGGGSGGGGSGGGGSGGGGSGGGGSGGGGSGGGGSEVQLVESGGGLVQPGGSVRLSCVASGIIFRLSALGWTRQGPGKAREWVAGINSDGTTNYADPVKGRFTISRDNAKNTIYLHMDMLKPEDTAVYYCASGKYRGQGTQVTVSS	7.53
CXCR20020 (bispecific antibody, Biparatopic: two VHH joined by a GlySer linker; also called 127D1-35GS-163D2; 127D1-163D2; not shown: C-terminal c-myc tag and His6 tag coded by pAX100) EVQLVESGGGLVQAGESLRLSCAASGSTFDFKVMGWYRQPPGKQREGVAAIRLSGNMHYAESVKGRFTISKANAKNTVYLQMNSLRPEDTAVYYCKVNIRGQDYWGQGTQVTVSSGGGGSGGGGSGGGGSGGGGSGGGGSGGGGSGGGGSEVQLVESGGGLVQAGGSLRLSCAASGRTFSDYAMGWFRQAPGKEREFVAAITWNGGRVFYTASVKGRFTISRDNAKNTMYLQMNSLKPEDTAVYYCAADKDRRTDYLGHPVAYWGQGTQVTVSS	8.75
CXCR20036 (other, Biparatopic: two VHH joined by a GlySer linker; also called 54B12-35GS-163D2; 54B12-163D2; not shown: C-terminal c-myc tag and His6 tag coded by pAX100) EVQLVESGGGLVQAGGSLTLSCAVSGSTFRINTMGWYRRAPGKQRELVAARDRGGYINYVDSVKGRFTVSRDNAKPTMYLQMNSLKPEDTAVYYCHAGTQDRTGRNFDRWGQGTQVTVSSGGGGSGGGGSGGGGSGGGGSGGGGSGGGGSGGGGSEVQLVESGGGLVQAGGSLRLSCAASGRTFSDYAMGWFRQAPGKEREFVAAITWNGGRVFYTASVKGRFTISRDNAKNTMYLQMNSLKPEDTAVYYCAADKDRRTDYLGHPVAYWGQGTQVTVSS	8.64
CXCR20027 (bispecific antibody, Two different VHH joined by a GlySer linker; also called 163E3-35GS-163D2; not shown: C-terminal c-myc tag and His6 tag coded by pAX100) EVQLVESGGGLVQPGGSLRLSCVASGRIFSSNAMGWFRQAPGKEREFVAAITWRSGGSAYYADSAKGRFTISRDNAKNTVYLQMNSLKPEDTAVYYCAAGGSSWLSFPPDYWGQGTQVTVSSGGGGSGGGGSGGGGSGGGGSGGGGSGGGGSGGGGSEVQLVESGGGLVQAGGSLRLSCAASGRTFSDYAMGWFRQAPGKEREFVAAITWNGGRVFYTASVKGRFTISRDNAKNTMYLQMNSLKPEDTAVYYCAADKDRRTDYLGHPVAYWGQGTQVTVSS	8.19
CXCR20019 (VHH, Bivalent: two VHH joined by a 9GS linker; also called 2B2-9GS-2B2; not shown: C-terminal c-myc tag and His6 tag coded by pAX100) EVQLVESGGELVQPGGSLRLSCAASGSILTINAMGWYRQAPGKQRELVVRRTRGGSTTYQDSVKGRFTISADIAKKTMYLQMNSLKPEDTAVYYCMLDDRGGVYWGQGTQVTVSSGGGGSGGGSEVQLVESGGELVQPGGSLRLSCAASGSILTINAMGWYRQAPGKQRELVVRRTRGGSTTYQDSVKGRFTISADIAKKTMYLQMNSLKPEDTAVYYCMLDDRGGVYWGQGTQVTVSS	8.74

Could you now consider this next binder?
Notebook: CXCR20013 (bispecific antibody, Biparatopic: two VHH joined by a GlySer linker; also called 2B2-35GS-97A9; not shown: C-terminal c-myc tag and His6 tag coded by pAX100) EVQLVESGGELVQPGGSLRLSCAASGSILTINAMGWYRQAPGKQRELVVRRTRGGSTTYQDSVKGRFTISADIAKKTMYLQMNSLKPEDTAVYYCMLDDRGGVYWGQGTQVTVSSGGGGSGGGGSGGGGSGGGGSGGGGSGGGGSGGGGSEVQLVESGGGLVQPGGSLRLSCVASGSIVRINTMGWYRQTPGKQRELVADITSGGNINYIDAVKGRFTISRDNTKNTVYLQMNSLKPEDTAVYYCNAEIVVLVGVWTQRARTGNYWGQGTQVTVSS , pIC50 read as 8.38
